Every entry's value here was drawn from paper PMC10786891.

Experimental Target: T1, EsCas13d, nuclease-dead (Eubacterium siraeum, UniProt B0MS50, R295A;H300A;R849A;H854A)
T1 sequence: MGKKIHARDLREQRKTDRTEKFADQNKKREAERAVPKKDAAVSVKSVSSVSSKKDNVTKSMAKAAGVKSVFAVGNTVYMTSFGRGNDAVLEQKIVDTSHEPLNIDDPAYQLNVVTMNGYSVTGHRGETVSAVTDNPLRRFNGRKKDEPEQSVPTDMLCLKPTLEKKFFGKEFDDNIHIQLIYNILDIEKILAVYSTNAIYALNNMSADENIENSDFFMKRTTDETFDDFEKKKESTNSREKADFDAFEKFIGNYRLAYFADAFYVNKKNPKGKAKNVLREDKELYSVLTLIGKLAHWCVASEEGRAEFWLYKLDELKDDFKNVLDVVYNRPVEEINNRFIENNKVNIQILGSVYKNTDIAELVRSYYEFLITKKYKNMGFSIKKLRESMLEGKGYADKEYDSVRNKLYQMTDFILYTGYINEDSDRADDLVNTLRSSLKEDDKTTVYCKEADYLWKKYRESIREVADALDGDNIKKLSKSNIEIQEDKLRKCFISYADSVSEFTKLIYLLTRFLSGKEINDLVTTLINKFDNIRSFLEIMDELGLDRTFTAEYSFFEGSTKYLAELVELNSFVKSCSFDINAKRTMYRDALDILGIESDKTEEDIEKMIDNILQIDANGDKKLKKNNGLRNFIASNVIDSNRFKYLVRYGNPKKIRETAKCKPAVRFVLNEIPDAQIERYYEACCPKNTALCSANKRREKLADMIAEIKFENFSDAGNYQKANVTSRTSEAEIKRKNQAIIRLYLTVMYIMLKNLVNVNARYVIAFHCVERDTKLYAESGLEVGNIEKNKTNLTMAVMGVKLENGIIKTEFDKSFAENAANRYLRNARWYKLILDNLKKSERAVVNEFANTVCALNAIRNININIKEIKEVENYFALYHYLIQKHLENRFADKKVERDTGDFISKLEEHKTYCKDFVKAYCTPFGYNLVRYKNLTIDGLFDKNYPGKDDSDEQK
Protocol Notes: crRNA (strand 1, pre-loaded); Mg2+; 40 mM Tris-HCl pH 7.5, 150 mM NaCl, 6 mM MgCl2, 1 mM DTT, 0.1% Tween-20, 0.2 mg/ml BSA; 25 C; 10 min per concentration, then washed
Particulars: tags: His6-TwinStrep-SUMO cleaved; N-terminal SNAP kept (SNAP-Surface 488); label: 3' end held by stalled T7 RNA polymerase
Property Label: pKd
Numbers only, as −log10 of the molar value.

The following binders have reported results that may help.
binder="target 1 insG 3' of 22,insC 3' of 22 (mixed) RNA 1: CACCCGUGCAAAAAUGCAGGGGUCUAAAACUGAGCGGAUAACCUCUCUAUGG RNA 2: GGGAAUGGAUCCACAUCUACGAAUUCGUACGCCAUAGAGAGGUUAUCCGCUCACCGAGAUCGGAAGAGCACACGU" property_label=pKd observed_measurement=8.04
binder="target 1 insC 3' of 12,insC 3' of 3 (mixed) RNA 1: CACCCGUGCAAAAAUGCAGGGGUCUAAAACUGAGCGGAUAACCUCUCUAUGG RNA 2: GGGAAUGGAUCCACAUCUACGAAUUCGUACCAUAGAGAGGCUUAUCCGCUCCACCGAGAUCGGAAGAGCACACGU" property_label=pKd observed_measurement=7.91

Please go through the list and note pKd for each binder.
1. target 1 C6A,A20U (mixed) RNA 1: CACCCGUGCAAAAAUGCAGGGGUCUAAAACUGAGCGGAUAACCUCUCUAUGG RNA 2: GGGAAUGGAUCCACAUCUACGAAUUCGUACCUUAGAGAGGUUAUCAGCUCACCGAGAUCGGAAGAGCACACGU
2. target 2 MT 5'PFS UGU 3'PFS CUU (mixed) RNA 1: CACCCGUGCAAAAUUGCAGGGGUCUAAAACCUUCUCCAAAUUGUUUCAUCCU RNA 2: GGGAAUGGAUCCACAUCUACGAAUUCUGUAGGAUGAAACAAUUUGGAGAAGCUUAGAUCGGAAGAGCACACGU
3. target 1 U8A,A20U (mixed) RNA 1: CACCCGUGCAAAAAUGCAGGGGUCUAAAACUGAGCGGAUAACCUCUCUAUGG RNA 2: GGGAAUGGAUCCACAUCUACGAAUUCGUACCUUAGAGAGGUUAACCGCUCACCGAGAUCGGAAGAGCACACGU
4. target 1 insC 3' of 15,insC 3' of 14 (mixed) RNA 1: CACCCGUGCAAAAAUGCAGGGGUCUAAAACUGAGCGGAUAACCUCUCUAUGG RNA 2: GGGAAUGGAUCCACAUCUACGAAUUCGUACCAUAGAGCACGGUUAUCCGCUCACCGAGAUCGGAAGAGCACACGU
5. target 3 C6U,A12U (mixed) RNA 1: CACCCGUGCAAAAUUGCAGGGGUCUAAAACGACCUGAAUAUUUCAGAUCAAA RNA 2: GGGAAUGGAUCCACAUCUACGAAUUCGUUUUUGAUCUGAUAUAUUUAGGUCUGCAGAUCGGAAGAGCACACGU
6. target 2 MT 5'PFS UAA 3'PFS CCA (mixed) RNA 1: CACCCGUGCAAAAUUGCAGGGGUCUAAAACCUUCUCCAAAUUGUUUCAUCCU RNA 2: GGGAAUGGAUCCACAUCUACGAAUUCUAAAGGAUGAAACAAUUUGGAGAAGCCAAGAUCGGAAGAGCACACGU

Completion:
1: 7.45; 2: 7.84; 3: 7.10; 4: 7.92; 5: 7.06; 6: 7.70
